Value source: paper PMC9093646

# method notes: Pharmacokinetics after oral administration
# Assay type: in vivo, rat
# condition parameters: rat, rats, equivalent to 100 mg/kg NRG, unchanged NRG in plasma
quantity name: AUC(0-inf) (ng·h/mL)
Expressed in ng·h/mL, but write only the number.

What the record says about `O=C1C[C@@H](c2ccc(O)cc2)Oc2cc(O)cc(O)c21` : AUC(0-inf) is 740
